The measurements presented in this section are drawn from ChEMBL document CHEMBL1149590.

# measured target: Gonadotropin-releasing hormone receptor (Homo sapiens) (UniProt P30968)
# Sequence (P30968 whole entry): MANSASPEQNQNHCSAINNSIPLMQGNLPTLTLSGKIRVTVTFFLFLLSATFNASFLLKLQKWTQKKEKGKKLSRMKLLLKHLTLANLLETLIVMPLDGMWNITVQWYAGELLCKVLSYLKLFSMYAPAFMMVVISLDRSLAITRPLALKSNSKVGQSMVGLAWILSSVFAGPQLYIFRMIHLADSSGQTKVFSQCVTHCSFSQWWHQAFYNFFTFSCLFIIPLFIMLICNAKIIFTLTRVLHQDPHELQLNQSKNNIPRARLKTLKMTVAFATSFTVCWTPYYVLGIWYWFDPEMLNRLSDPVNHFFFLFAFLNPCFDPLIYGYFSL
# protocol description: Displacement of [125I]triptorelin from human GnRHR expressed in CHO cells at 1 uM
# Format: cell-based
value kind: Activity (%)

query smiles: CCOC(=O)c1cn(Cc2c(F)cccc2F)c2nc(-c3ccc(NC(=O)NCc4cn(CCn5cc(CNC(=O)Nc6ccc(-c7nc8n(Cc9c(F)cccc9F)cc(C(=O)OCC)c(=O)n8c7CN(C)Cc7ccccc7)cc6)nn5)nn4)cc3)c(CN(C)Cc3ccccc3)n2c1=O
value kind: Activity
unit of measure: %
assay result: 68
//
query smiles: CCNC(=O)Nc1ccc(-c2nc3n(Cc4c(F)cccc4F)cc(C(=O)NCc4cn(CCOCCOCCN=[N+]=[N-])nn4)c(=O)n3c2CN(C)Cc2ccccc2)cc1
value kind: Activity
unit of measure: %
assay result: 81
//
query smiles: CCNC(=O)Nc1ccc(-c2nc3n(Cc4c(F)cccc4F)cc(C(=O)OCC)c(=O)n3c2CN(CC(=O)NCc2cn(CCOCCn3cc(CNC(=O)CN(Cc4ccccc4)Cc4c(-c5ccc(NC(=O)NCC)cc5)nc5n(Cc6c(F)cccc6F)cc(C(=O)OCC)c(=O)n45)nn3)nn2)Cc2ccccc2)cc1
value kind: Activity
unit of measure: %
assay result: 71

---

# measured target: Gonadotropin-releasing hormone receptor (Homo sapiens) (UniProt P30968)
# protocol description: Displacement of [125I]triptorelin from human GnRHR expressed in CHO cells at 1 uM
# Format: cell-based
value kind: Activity (%)

query smiles: CCNC(=O)Nc1ccc(-c2nc3n(Cc4c(F)cccc4F)cc(C(=O)NCc4cn(CCOCCOCCOCCn5cc(CNC(=O)c6cn(Cc7c(F)cccc7F)c7nc(-c8ccc(NC(=O)NCC)cc8)c(CN(C)Cc8ccccc8)n7c6=O)nn5)nn4)c(=O)n3c2CN(C)Cc2ccccc2)cc1
unit of measure: %
Activity: 86

query smiles: CCNC(=O)Nc1ccc(-c2nc3n(Cc4c(F)cccc4F)cc(C(=O)OCC)c(=O)n3c2CN(C)Cc2ccccc2)cc1
unit of measure: %
Activity: 99

query smiles: CCOC(=O)c1cn(Cc2c(F)cccc2F)c2nc(-c3ccc(NC(=O)NCc4cn(CCOCCOCCOCCOCCN=[N+]=[N-])nn4)cc3)c(CN(C)Cc3ccccc3)n2c1=O
unit of measure: %
Activity: 90

query smiles: CCNC(=O)Nc1ccc(-c2nc3n(Cc4c(F)cccc4F)cc(C(=O)OCC)c(=O)n3c2CN(CC(=O)NCc2cn(CCOCCOCCOCCn3cc(CNC(=O)CN(Cc4ccccc4)Cc4c(-c5ccc(NC(=O)NCC)cc5)nc5n(Cc6c(F)cccc6F)cc(C(=O)OCC)c(=O)n45)nn3)nn2)Cc2ccccc2)cc1
unit of measure: %
Activity: 71

query smiles: C#CCNC(=O)Nc1ccc(-c2nc3n(Cc4c(F)cccc4F)cc(C(=O)OCC)c(=O)n3c2CN(C)Cc2ccccc2)cc1
unit of measure: %
Activity: 98

query smiles: CCNC(=O)Nc1ccc(-c2nc3n(Cc4c(F)cccc4F)cc(C(=O)NCc4cn(CCOCCn5cc(CNC(=O)c6cn(Cc7c(F)cccc7F)c7nc(-c8ccc(NC(=O)NCC)cc8)c(CN(C)Cc8ccccc8)n7c6=O)nn5)nn4)c(=O)n3c2CN(C)Cc2ccccc2)cc1
unit of measure: %
Activity: 64

query smiles: C#CCNC(=O)c1cn(Cc2c(F)cccc2F)c2nc(-c3ccc(NC(=O)NCC)cc3)c(CN(C)Cc3ccccc3)n2c1=O
unit of measure: %
Activity: 85

query smiles: CCNC(=O)Nc1ccc(-c2nc3n(Cc4c(F)cccc4F)cc(C(=O)OCC)c(=O)n3c2CN(CC(=O)NCc2cn(CCOCCOCCN=[N+]=[N-])nn2)Cc2ccccc2)cc1
unit of measure: %
Activity: 83

query smiles: CCOC(=O)c1cn(Cc2c(F)cccc2F)c2nc(-c3ccc(NC(=O)NCc4cn(CCOCCOCCOCCn5cc(CNC(=O)Nc6ccc(-c7nc8n(Cc9c(F)cccc9F)cc(C(=O)OCC)c(=O)n8c7CN(C)Cc7ccccc7)cc6)nn5)nn4)cc3)c(CN(C)Cc3ccccc3)n2c1=O
unit of measure: %
Activity: 90

query smiles: CCNC(=O)Nc1ccc(-c2nc3n(Cc4c(F)cccc4F)cc(C(=O)OCC)c(=O)n3c2CN(CC(=O)NCc2cn(CCOCCOCCOCCN=[N+]=[N-])nn2)Cc2ccccc2)cc1
unit of measure: %
Activity: 76

---

# measured target: Gonadotropin-releasing hormone receptor (Homo sapiens, UniProt P30968)
# protocol description: Antagonist activity at human GnRHR expressed in CHO cells after 30 mins by luciferase reporter gene assay
pIC50: −log10 of the molar value.
value kind: pIC50

a: CCOC(=O)c1cn(Cc2c(F)cccc2F)c2nc(-c3ccc(NC(=O)NCc4cn(CCOCCOCCOCCOCCN=[N+]=[N-])nn4)cc3)c(CN(C)Cc3ccccc3)n2c1=O
b: CCOC(=O)c1cn(Cc2c(F)cccc2F)c2nc(-c3ccc(NC(=O)NCc4cn(CCOCCOCCOCCOCCn5cc(CNC(=O)Nc6ccc(-c7nc8n(Cc9c(F)cccc9F)cc(C(=O)OCC)c(=O)n8c7CN(C)Cc7ccccc7)cc6)nn5)nn4)cc3)c(CN(C)Cc3ccccc3)n2c1=O
I'm curious whether a or b has the smaller pIC50 number. Which is it? Choose, then provide that item's label. b
(b: 5.87, a: 6.17)

---

# measured target: Gonadotropin-releasing hormone receptor (Homo sapiens)
# protocol description: Antagonist activity at human GnRHR expressed in CHO cells after 30 mins by luciferase reporter gene assay
value kind: IC50 (nM)

query smiles: CCNC(=O)Nc1ccc(-c2nc3n(Cc4c(F)cccc4F)cc(C(=O)OCC)c(=O)n3c2CN(C)Cc2ccccc2)cc1
measured target: Gonadotropin-releasing hormone receptor (Homo sapiens)
unit of measure: nM
IC50: 70.8
//
query smiles: CCNC(=O)Nc1ccc(-c2nc3n(Cc4c(F)cccc4F)cc(C(=O)OCC)c(=O)n3c2CN(CC(=O)NCc2cn(CCn3cc(CNC(=O)CN(Cc4ccccc4)Cc4c(-c5ccc(NC(=O)NCC)cc5)nc5n(Cc6c(F)cccc6F)cc(C(=O)OCC)c(=O)n45)nn3)nn2)Cc2ccccc2)cc1
measured target: Gonadotropin-releasing hormone receptor (Homo sapiens)
unit of measure: nM
IC50: 1910
//
query smiles: CCOC(=O)c1cn(Cc2c(F)cccc2F)c2nc(-c3ccc(NC(=O)NCc4cn(CCOCCOCCOCCN=[N+]=[N-])nn4)cc3)c(CN(C)Cc3ccccc3)n2c1=O
measured target: Gonadotropin-releasing hormone receptor (Homo sapiens)
unit of measure: nM
IC50: 3020
//
query smiles: CCOC(=O)c1cn(Cc2c(F)cccc2F)c2nc(-c3ccc(NC(=O)NCc4cn(CCn5cc(CNC(=O)Nc6ccc(-c7nc8n(Cc9c(F)cccc9F)cc(C(=O)OCC)c(=O)n8c7CN(C)Cc7ccccc7)cc6)nn5)nn4)cc3)c(CN(C)Cc3ccccc3)n2c1=O
measured target: Gonadotropin-releasing hormone receptor (Homo sapiens)
unit of measure: nM
IC50: 1910

I: CCNC(=O)Nc1ccc(-c2nc3n(Cc4c(F)cccc4F)cc(C(=O)OCC)c(=O)n3c2CN(CC(=O)NCc2cn(CCOCCn3cc(CNC(=O)CN(Cc4ccccc4)Cc4c(-c5ccc(NC(=O)NCC)cc5)nc5n(Cc6c(F)cccc6F)cc(C(=O)OCC)c(=O)n45)nn3)nn2)Cc2ccccc2)cc1
II: CCOC(=O)c1cn(Cc2c(F)cccc2F)c2nc(-c3ccc(NC(=O)NCc4cn(CCOCCN=[N+]=[N-])nn4)cc3)c(CN(C)Cc3ccccc3)n2c1=O
III: CCOC(=O)c1cn(Cc2c(F)cccc2F)c2nc(-c3ccc(NC(=O)NCc4cn(CCOCCOCCN=[N+]=[N-])nn4)cc3)c(CN(C)Cc3ccccc3)n2c1=O
IV: C#CCNC(=O)CN(Cc1ccccc1)Cc1c(-c2ccc(NC(=O)NCC)cc2)nc2n(Cc3c(F)cccc3F)cc(C(=O)OCC)c(=O)n12
V: C#CCNC(=O)c1cn(Cc2c(F)cccc2F)c2nc(-c3ccc(NC(=O)NCC)cc3)c(CN(C)Cc3ccccc3)n2c1=O
Parameters: sort_field (IC50), sort_dir (desc). Give the labels in the order specified. V, II, III, I, IV
(V: 7080 nM, II: 3630 nM, III: 2400 nM, I: 1550 nM, IV: 1000 nM)
